Tested on: Staphylococcus aureus
PROTOCOL: antibiogram by diffusion on Mueller-Hinton agar with antibiotic wafers
Type: cell-based
PROTOCOL CONDITIONS: Table C2; S. aureus phenotype R to methicilline, R to aminosides, fluoroquinolones, to rifampicie, to macrolides and the like; sixteen wafers, square dish
PROPERTY: resistant (I/R) or sensitive (S)

INSERT INTO results (compound, endpoint_value) VALUES
  ('CC(=O)NC[C@H]1CN(c2ccc(N3CCOCC3)c(F)c2)C(=O)O1 [LNZ, linezolid]', 'S'),
  ('C[C@H]1c2cccc(O)c2C(=O)C2=C(O)[C@]3(O)C(=O)C(C(N)=O)=C(O)[C@@H](N(C)C)[C@@H]3[C@@H](O)[C@@H]21 [DO, doxycycline]', 'R'),
  ('C[C@@H]1O[C@@H]1P(=O)(O)O [FF, fosfomycin]', 'R'),
  ('CCC[C@@H]1C[C@@H](C(=O)N[C@@H]([C@H]2O[C@H](SC)[C@H](O)[C@@H](O)[C@H]2O)[C@H](C)Cl)N(C)C1 [CLI, clindamycin]', 'R'),
  ('CO[C@@]1(NC(=O)Cc2cccs2)C(=O)N2C(C(=O)O)=C(COC(N)=O)CS[C@@H]21 [FOX, cefoxitine]', 'R'),
  ('CO[C@H]1/C=C/O[C@@]2(C)Oc3c(C)c(O)c4c(O)c(c(/C=N/N5CCN(C)CC5)c(O)c4c3C2=O)NC(=O)/C(C)=C\C=C\[C@H](C)[C@H](O)[C@@H](C)[C@@H](O)[C@@H](C)[C@H](OC(C)=O)[C@@H]1C [RA, rifampicin]', 'R'),
  ('CC[C@H]1OC(=O)[C@H](C)[C@@H](O[C@H]2C[C@@](C)(OC)[C@@H](O)[C@H](C)O2)[C@H](C)[C@@H](O[C@@H]2O[C@H](C)C[C@H](N(C)C)[C@H]2O)[C@](C)(O)C[C@@H](C)C(=O)[C@H](C)[C@@H](O)[C@]1(C)O [E, erythromycin]', 'R'),
  ('O=C(O)c1cn(C2CC2)c2cc(N3CCNCC3)c(F)cc2c1=O [CIP, ciprofloxacin]', 'R'),
  ('Cc1onc(-c2ccccc2)c1C(=O)N[C@@H]1C(=O)N2[C@@H]1SC(C)(C)[C@@H]2C(=O)O [OXA, oxacillin]', 'R'),
  ('O=C1CN(/N=C/c2ccc([N+](=O)[O-])o2)C(=O)N1 [FUR, nitrofurantoin]', 'R'),
  ('NC[C@H]1O[C@H](O[C@H]2[C@H](O)[C@@H](O[C@H]3O[C@H](CO)[C@@H](O)[C@H](N)[C@H]3O)[C@H](N)C[C@@H]2N)[C@H](N)C[C@@H]1O [TOB, tobramycin]', 'R'),
  ('CN[C@H](CC(C)C)C(=O)N[C@H]1C(=O)N[C@@H](CC(N)=O)C(=O)N[C@H]2C(=O)N[C@H]3C(=O)N[C@H](C(=O)N[C@H](C(=O)O)c4cc(O)cc(O)c4-c4cc3ccc4O)[C@H](O)c3ccc(c(Cl)c3)Oc3cc2cc(c3O[C@@H]2O[C@H](CO)[C@@H](O)[C@H](O)[C@H]2O[C@H]2C[C@](C)(N)[C@H](O)[C@H](C)O2)Oc2ccc(cc2Cl)[C@H]1O [VAN, vancomycin]', 'S');
